Protocol Text: endothelial E-selectin upregulation by compounds – imaging, HUVEC, cherry-picked samples, dose response (AID 977605);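 also: signal is the share of imaged cells scored positive for E-selectin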
Condition Details: HUVEC E-selectin immunostaining, at 19.5 µM (top of the series), percent of TNF-alpha response over vehicle
List of activation values.
Readout Label: activation (%)

>>> recorded_result("CCCC#Cc1ccc2c(c1)O[C@H](CN(C)C(C)=O)[C@H](C)CN([C@@H](C)CO)S2(=O)=O")
0.607
>>> recorded_result("C[C@@H]1CN([C@@H](C)CO)C(=O)Cc2cc(NC(=O)Nc3ccc(F)cc3)ccc2O[C@H]1CN(C)Cc1ccc(C(=O)O)cc1")
-0.089
>>> recorded_result("C[C@@H]1CCCCO[C@@H](CN(C)C(=O)Cc2ccccc2)[C@@H](C)CN([C@H](C)CO)C(=O)c2cc(NS(=O)(=O)c3cccs3)ccc2O1")
0.129
>>> recorded_result("C[C@H](CO)N1C[C@H](C)[C@H](CN(C)Cc2ccc(C(=O)Nc3ccccc3N)cc2)Oc2ccc(NS(=O)(=O)c3cccs3)cc2CC1=O")
6.58
>>> recorded_result("C[C@@H]1CN([C@H](C)CO)C(=O)Cc2cc(NC(=O)C3CC3)ccc2O[C@@H]1CN(C)Cc1ccc2c(c1)OCO2")
-0.006
>>> recorded_result("C[C@H]1CN([C@@H](C)CO)C(=O)c2cc(NS(=O)(=O)c3cn(C)cn3)ccc2O[C@@H]1CN(C)Cc1ccncc1")
-0.214

* * *

Protocol Text: endothelial E-selectin upregulation by compounds – imaging, HUVEC, cherry-picked samples, dose response (AID 977605);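 also: signal is the share of imaged cells scored positive for E-selectin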
Condition Details: HUVEC E-selectin immunostaining, at 19.5 µM (top of the series), percent of TNF-alpha response over vehicle
Readout Label: activation (%)

>>> recorded_result("Cc1[nH]c(C)c(S(=O)(=O)N2CCCCC2)c1C(=O)N1CCCC1")
-0.044
>>> recorded_result("COc1ccc(NC(=O)N(C)C[C@@H]2Oc3ccc(NC(=O)Cc4ccccc4)cc3CC(=O)N([C@H](C)CO)C[C@H]2C)cc1")
-0.201
>>> recorded_result("CCCC#Cc1ccc2c(c1)O[C@@H](CN(C)S(=O)(=O)c1cccc(OC)c1)[C@@H](C)CN([C@@H](C)CO)S2(=O)=O")
0.13

* * *

Protocol Text: endothelial E-selectin upregulation by compounds – imaging, HUVEC, cherry-picked samples, dose response (AID 977605);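 also: signal is the share of imaged cells scored positive for E-selectin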
Condition Details: HUVEC E-selectin immunostaining, at 19.5 µM (top of the series), percent of TNF-alpha response over vehicle
Overview of reported activation across a group of compounds:
Readout Label: activation (%)

>>> recorded_result("C[C@H]1CN([C@@H](C)CO)C(=O)c2cc(Br)cnc2O[C@H]1CN(C)Cc1cccc(F)c1")
-0.038
>>> recorded_result("C[C@H]1CN([C@@H](C)CO)C(=O)Cc2cc(NC(=O)Nc3ccccc3)ccc2O[C@H]1CN(C)C")
0.067
>>> recorded_result("Cc1c(C(=O)NCc2ccco2)oc2ccccc12")
-0.246
>>> recorded_result("C[C@H](CO)N1C[C@H](C)[C@@H](CN(C)S(C)(=O)=O)Oc2ccc(NC(=O)C3CCCCC3)cc2CC1=O")
0.112
>>> recorded_result("CCOC(=O)C1CCCN(C(=O)c2cc(S(=O)(=O)N(C)C)ccc2N2CCCC2)C1 (stereo not given)")
0.51
